target_under_test: Aldose Reductase (Bos taurus)
Construct: The enzyme is extracted from beef eye lenses; from tissue; host or cells: beef eye lenses
test_method_notes: Inhibition of aldose reductase in vitro (enzyme from beef eye lenses, glyceraldehyde substrate)
Assay type: biochemical
recorded_conditions: 10^-5 mole/l, in DMF solution; read-out: percentages of inhibition (aldose reductase)
measure_name: inhibition at 10 µM

| compound | inhibition at 10 µM |
| --- | --- |
| CC1(C)O[C@@H]2[C@@H](O)[C@H](OC[C@H]3O[C@@H](Oc4c(-c5ccc(O)c(O)c5)oc5cc(O)cc(O)c5c4=O)[C@H](O)[C@@H](O)[C@@H]3O)OC[C@@H]2O1 [No. 4] | 0% |

Record C[C@@H]1O[C@@H](O[C@H]2[C@H](Oc3cc(O)c4c(c3)OC(c3ccc(O)cc3)CC4=O)O[C@H](CO)[C@@H](O)[C@@H]2O)[C@@H]2OC(C)(C)O[C@@H]2[C@H]1O (stereo partly drawn) [No. 8] ; system Aldose Reductase (Bos taurus); inhibition at 10 µM = 0%

// returns inhibition at 10 µM for O=c1ccc2cc(O[C@@H]3O[C@@H]4COC(c5ccc(O)c(O)c5)O[C@H]4[C@H](O)[C@H]3O)c(O)cc2o1 (stereo partly drawn) [No. 24] with Aldose Reductase (Bos taurus); value = 0%

====

% of animals for which the effect is ≥ 25 u cm Hg/h values by entry
Tested on: capillary resistance
test_method_notes: Capillaroprotecting effects: capillary resistance
Assay type: in vivo, male OFA EOPS rats
recorded_conditions: 100 mg/kg i.p.
Method: Capillaroprotecting effects The capillary resistance was determined by a variant of the method of Charlier et al, Arch. Inter. Physiol.
Dear colleague, please return just the value in %, with no unit written.

| compound | measured |
| --- | --- |
| C[C@@H]1O[C@@H](OC[C@H]2O[C@@H](Oc3c(-c4ccc(O)c(O)c4)oc4cc(O)cc(O)c4c3=O)[C@H](O)[C@@H](O)[C@@H]2O)[C@@H]2OC3(CCCCC3)O[C@@H]2[C@H]1O [No. 6] | 40 |

Value of % of animals for which the effect is ≥ 25 u cm Hg/h reported for the compound C[C@@H]1O[C@@H](Oc2c(-c3ccc(O)c(O)c3)oc3cc(O)cc(O)c3c2=O)[C@@H]2OC(C)(C)O[C@@H]2[C@H]1O [No. 3] is 80

So for CC1(C)OC[C@H]2O[C@@H](Oc3c(-c4ccc(O)c(O)c4)oc4cc(O)cc(O)c4c3=O)[C@H](O)[C@@H](O)[C@@H]2O1 [No. 5] , the logged % of animals for which the effect is ≥ 25 u cm Hg/h turned out to be 80

Note to self: % of animals for which the effect is ≥ 25 u cm Hg/h recorded for C[C@@H]1O[C@@H](OC[C@H]2O[C@@H](Oc3c(-c4ccc(O)c(O)c4)oc4cc(O)cc(O)c4c3=O)[C@H](O)[C@@H](O)[C@@H]2O)[C@@H]2OC(C)(C)O[C@@H]2[C@H]1O [No. 1] was 50

====

target_under_test: Aldose Reductase (Bos taurus)
Construct: The enzyme is extracted from beef eye lenses; from tissue; host or cells: beef eye lenses
test_method_notes: Inhibition of aldose reductase in vitro (enzyme from beef eye lenses, glyceraldehyde substrate)
Format: biochemical
recorded_conditions: 10^-4 mole/l, in DMF solution; read-out: percentages of inhibition (aldose reductase)
Label false (0) if inhibition at 100 µM falls below 90%; label true (1) in every other case.

Answered examples (2):
| compound | answer_label |
| --- | --- |
| COc1ccc(C2(C)O[C@@H]3[C@@H](O)[C@H](C)O[C@@H](OC[C@H]4O[C@@H](Oc5c(-c6ccc(O)c(O)c6)oc6cc(O)cc(O)c6c5=O)[C@H](O)[C@@H](O)[C@@H]4O)[C@@H]3O2)cc1 (some centres unmarked) [No. 36] | true (1) |
| C[C@@H]1O[C@@H](OC[C@H]2O[C@@H](Oc3c(-c4ccc(O)c(O)c4)oc4cc(O)cc(O)c4c3=O)[C@H](O)[C@@H](O)[C@@H]2O)[C@@H]2OC3(CCCCC3)O[C@@H]2[C@H]1O [No. 6] | true (1) |

We now examine a further compound.
Query: Quick check: does C[C@@H]1O[C@@H](O[C@H]2[C@H](Oc3cc(O)c4c(c3)OC(c3ccc(O)cc3)CC4=O)O[C@H](CO)[C@@H](O)[C@@H]2O)[C@@H]2OC(C)(C)O[C@@H]2[C@H]1O (some centres unmarked) [No. 8] have inhibition at 100 µM greater than or equal to 90%?
Reply: false (0)
